Data credit: the kinase profiling compilation of Christmann-Franck et al. (2016)

- target: SRC (human) (UniProt P12931)
- Sequence (P12931 whole entry, looked up): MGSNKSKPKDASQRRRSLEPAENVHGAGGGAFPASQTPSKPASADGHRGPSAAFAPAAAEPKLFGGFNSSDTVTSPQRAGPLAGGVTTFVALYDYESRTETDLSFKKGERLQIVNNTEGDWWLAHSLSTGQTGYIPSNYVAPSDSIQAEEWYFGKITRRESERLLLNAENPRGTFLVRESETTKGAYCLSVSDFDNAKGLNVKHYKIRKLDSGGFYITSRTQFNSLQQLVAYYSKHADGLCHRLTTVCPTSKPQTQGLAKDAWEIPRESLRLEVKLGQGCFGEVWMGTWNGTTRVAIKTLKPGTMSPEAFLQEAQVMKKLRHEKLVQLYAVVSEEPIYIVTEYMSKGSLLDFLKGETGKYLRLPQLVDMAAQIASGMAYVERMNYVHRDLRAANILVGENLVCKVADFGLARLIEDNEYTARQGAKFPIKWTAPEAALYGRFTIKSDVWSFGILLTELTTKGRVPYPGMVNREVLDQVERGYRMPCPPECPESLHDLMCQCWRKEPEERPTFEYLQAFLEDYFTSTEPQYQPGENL
- assayOverview: radiometric filter-binding kinase assay
- appliedConditions: compound 0.1 µM
metricName: residual activity (%)

Check out these entries, answers already filled in.
> print(dat)
                                  cpdsmiles                        target  reportedvalue
1  NC(=O)c1cc(-c2ccnc(NC3CCCCC3)c2)nc(N2CCNCC2)c1  SRC (human) (UniProt P12931)            106
2  CNc1nc(-c2ccc3c(N)n[nH]c3c2)cc(N2C[C@@H](C(=O)NC3CCCCC3)CC[C@H]2C)n1  SRC (human) (UniProt P12931)            105
3    CCn1c(-c2nonc2N)nc2cncc(CNC3CCNCC3)c21  SRC (human) (UniProt P12931)            110
4  Cc1cc(NC(=O)c2cccc(NC(=O)/C=C/CN(C)C)c2)ccc1Nc1nccc(-c2cccnc2)n1  SRC (human) (UniProt P12931)             85
5  COc1cc(O)c2c(c1)/C=C/C[C@H](O)[C@H](O)C(=O)/C=C\C[C@H](C)OC2=O  SRC (human) (UniProt P12931)            106

I: COc1ccc(N(C(=O)Nc2c(C)cccc2C)c2cc(Nc3ccc(N4CCN(C)CC4)cc3)ncn2)c(OC)c1
II: O=C(Nc1ccccc1-c1cn2c(CN3CCNCC3)csc2n1)c1cnc2ccccc2n1
Exam item: Compare residual activity: is it lower for I or for II ? Reply with the label of the item you choose.
Marked response: I
(I: 9%, II: 85%)
